The values you see were collected from PubChem BioAssay (NCI).

System: T-47D breast
Assay: NCI tumour cell line growth inhibition, 48 h
observable: TGI

Asked: Data request, read-out TGI, for O=C1/C(=C/C(Cl)=C/c2ccccc2)SC(=S)N1CCc1ccc(O)cc1
Given back: 5.61 µM

Asked: And CC1=[N+]([O-])C(C)(C)N(O)C1(C)C ?
Given back: > 100 µM

Asked: Quick one: CCOC(=O)Oc1cc2c(ccn2C)c2c1c1ccccc1n2C(=O)OCC
Given back: > 100 µM

Asked: Same lookup for CN(C)CC1CCn2c(c(C3=C(c4cn(C)c5ccccc45)C(=O)NC3=O)c3ccccc32)C1 (configuration not stated) , please.
Given back: 10.7 µM

Asked: And for C#C[C@@]1(O)[C@@H](CO)O[C@@H](n2cc(F)c3c(N)ncnc32)[C@@H]1O ?
Given back: 0.77 µM

Asked: Similarly, C#C[C@]1(O)CC[C@H]2[C@@H]3CCC4=C/C(=N\OCCN5CCCC5)CC[C@]4(C)[C@H]3CC[C@@]21C ?
Given back: 60.4 µM

Asked: And for O=C(/C=C/c1ccccc1)CCC1C(=O)NC(=O)NC1=O ?
Given back: > 100 µM

Asked: What do you have for Cc1cc2nc3c(C#N)c(-c4ccccc4)cc(Nc4ccc(F)cc4)n3c2cc1C ?
Given back: > 100 µM

Asked: Moving on to CC(C)(CCCCC(C)(C)NCC1COc2ccccc2O1)NCC1COc2ccccc2O1 (configuration not stated)
Given back: > 10 µM

Asked: Note, next up: COc1cc2c3c(n(C4CCNCC4)c(=O)c2cc1OC)-c1cc2c(cc1C3=O)OCO2
Given back: 2.38 µM

Asked: Cool, now CCn1c(=O)c2c3ccc(O)cc3oc2c2ccc(O)cc21
Given back: 69.1 µM

Asked: Try CC1(C)N=C(N)N=C(N)N1c1cccc(OCc2cccc([N+](=O)[O-])c2)c1 next.
Given back: > 89.1 µM

Asked: Then CCOn1cc(C2=C(c3c[nH]c4ccccc34)C(=O)NC2=O)c2ccccc21 ?
Given back: > 100 µM

Asked: Now try COC(=O)N/N=C(\C)C(CN1CCOCC1)C(c1ccccc1)c1cc2ccccc2oc1=O (configuration not stated) .
Given back: > 100 µM

Asked: Lookup Cc1ccnc2nc3[nH]c4ccccc4c3cc12
Given back: > 100 µM

Asked: What about COC(=O)Nc1nc2ccc(Oc3ccc(NC(=O)Nc4cccc(Cl)c4)cc3)cc2[nH]1 ?
Given back: 5.65 µM

Asked: Please answer likewise for O=C1CCSc2c(cnc3ccccc23)N1
Given back: > 100 µM

Asked: Cool, now C/C(=C/CNc1ncnc2c1ncn2CCC#N)CO
Given back: > 100 µM

Asked: Lookup O=C(O)Cc1[nH]cnc1C(=O)O
Given back: > 100 µM

Asked: What would you report for CNC(=S)NNC1=NCCCCN1 ?
Given back: > 100 µM

Asked: # repeat for CCN(CC)CCOc1cc2c(C(=O)OC)c(C)oc2cc1C(C)=O
Given back: 7.75 µM

Asked: # iterate: Cc1ccnc2c1ccc1nc3ccccc3n12
Given back: > 100 µM
